Tested on: ATP;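 also: ATP exposure 15 min at 22 °C before imaging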
assay-comment: switch fluorescence ratio, 500 uM ATP over buffer (Cy3 cluster intensity, sum of 5 cycles each) (fold (ratio)); higher = stronger signal-on switching upon ATP binding; sequences stand for … in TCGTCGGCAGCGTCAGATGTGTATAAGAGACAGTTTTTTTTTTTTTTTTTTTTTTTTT…TC
experimental-setup: aptamer strand: ATP DNA aptamer (quencher-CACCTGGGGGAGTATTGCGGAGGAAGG + anchor), 100 nM annealed; ATP concentration: 500 uM
Threshold check on switch fluorescence ratio: at or above 1 gives true, strictly below gives false.

Here's what some known entries look like.
CAGGTGCGGG true
GCATCAATGG true
CCGTAGAATT true

Q. Item ATCAAGGATG with switch fluorescence ratio of 1 or above?
A. true

Q. Determine whether measured switch fluorescence ratio meets or exceeds 1 for AGGATTGTGT
A. false

Q. Is switch fluorescence ratio for AAAGCAGTAT at or above 1?
A. true

Q. Textbook exercise: given the entry CCGCCAGGTC , state whether its switch fluorescence ratio is greater than or equal to 1.
A. true

Q. Please check the record ACCTTGCACA and state if its switch fluorescence ratio is at or above 1.
A. true

Q. Assess whether reported switch fluorescence ratio for TGCCCGGGGG sits at 1 or higher.
A. true

Q. // inclusive: switch fluorescence ratio at least 1? input: CTGAAGAATT
A. true

Q. Is it the case that GGCTTTTGGG has switch fluorescence ratio reaching or exceeding 1?
A. true

Q. Is the recorded value of switch fluorescence ratio equal to or greater than 1 for this sequence? CGGGGGCTGT
A. false

Q. Tell me whether switch fluorescence ratio is at least 1 here: ATTAGAAAAA
A. false

Q. Say whether ACACGTAACT shows switch fluorescence ratio of 1 or more.
A. true

Q. Identify whether the reported switch fluorescence ratio of the following sequence is 1 or greater: GGCGAGTGAG
A. true

Q. Given TTCAAGCAGA , state whether its switch fluorescence ratio is at least 1.
A. true

Q. Determine whether measured switch fluorescence ratio meets or exceeds 1 for TTATTGCGGG
A. false

Q. // inclusive: switch fluorescence ratio at least 1? input: GATCGGAGCG
A. true

Q. Check if switch fluorescence ratio >= 1 (inclusive). Item: AATTGGGGTC
A. false

Q. Identify whether the reported switch fluorescence ratio of the following sequence is 1 or greater: TGGCCGGGCA
A. true

Q. Could you please find out whether GGCTAAGAAT has switch fluorescence ratio that meets 1 or exceeds it?
A. true

Q. Confirm if switch fluorescence ratio reported for the sequence GTGTGAACGG is 1 or above.
A. false

Q. Can ATTCACTTAG be said to have switch fluorescence ratio at or above 1?
A. true

Q. I'd appreciate it if you could say whether TATTAGGGTG has switch fluorescence ratio at least equal to 1.
A. true

# credit: the supplement of paper PMC10126150
